# Tested on: HBV
# assay.info: antiviral assay in 2.2.15 cells producing HBV (virion DNA dot blot)
# Type: cell-based, Hepatitis B virus
# reported.conditions: extra-cellular virus reduced by 50%; 2.2.15 cells, 9 days treatment; read-out: Antiviral EC50
// pEC50 lookup, one value per entry
Hey, just a heads up that pEC50 is the negative log base 10 of the concentration in molar.

Would you please look over these solved cases?
Cc1cccc(C(=O)Oc2ccc(C=NNc3nc(N4CCCCC4)nc(N4CCCCC4)n3)cc2)c1
5.22
CCCCN(CCCC)c1nc(NN=Cc2ccc3c(c2)OCO3)nc(Nc2ccc([N+](=O)[O-])cc2)n1
5.41
CCN(CC)c1nc(NN=Cc2c(O)ccc3ccccc23)nc(Nc2ccccc2)n1
5.30
COc1ccc(C=NNc2nc(Nc3ccc([N+](=O)[O-])cc3)nc(N3CCCCC3)n2)cc1
5.32
Oc1ccc2ccccc2c1C=NNc1nc(Nc2cccc3ccccc23)nc(N2CCOCC2)n1
5.77

stdin: I'd like to know its pEC50. The compound in question is "COc1c(C=NNc2nc(NCc3ccccc3)nc(Nc3ccccc3)n2)cccc1[N+](=O)[O-]"
stdout: 6.03

stdin: I'd like to know its pEC50. The compound in question is "Cc1ccc(Nc2nc(NN=Cc3cc(I)ccc3O)nc(Nc3ccccc3)n2)c(C)c1"
stdout: 6.30

stdin: I'd like to know its pEC50. The compound in question is "Cc1[nH]c2ccccc2c1C=NNc1nc(Nc2ccccc2)nc(N2CCCCC2)n1"
stdout: 5.32

stdin: I'd like to know its pEC50. The compound in question is "O=[N+]([O-])c1ccc(Nc2nc(NN=Cc3ccc(Br)cc3)nc(N3CCCCCC3)n2)cc1"
stdout: 5.38

stdin: I'd like to know its pEC50. The compound in question is "COc1c(C=NNc2nc(Nc3ccccc3)nc(Nc3ccccc3)n2)ccc(Br)c1O"
stdout: 6.15

stdin: I'd like to know its pEC50. The compound in question is "Oc1ccc(Br)cc1C=NNc1nc(Nc2cccc(C(F)(F)F)c2)nc(N2CCOCC2)n1"
stdout: 5.28

stdin: I'd like to know its pEC50. The compound in question is "CCCCN(CCCC)c1nc(NN=Cc2ccc([N+](=O)[O-])cc2)nc(Nc2ccc([N+](=O)[O-])cc2)n1"
stdout: 6.39

stdin: I'd like to know its pEC50. The compound in question is "Cc1ccc(Nc2nc(NN=Cc3ccc(Cl)cc3)nc(Nc3ccccc3)n2)c(C)c1"
stdout: 5.21
